test system: MYLK; settings: Compound Concentration (nM):1000;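 note: KINOMEscan scanMAX binding as percent activity remaining versus control; lower means stronger binding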
Please provide measured Percent Control for the entries that follow.
Just the number in %, nothing appended.

Data request: Give reported Percent Control value for NS(=O)(=O)c1ccc(N/N=C2\C(=O)Nc3ccc(C(=O)NCc4ccncc4)cc32)cc1 [GW300657X]
Data returned: 45

Data request: Tell me its Percent Control given CC1=C(C(=O)Nc2ccc3[nH]ncc3c2)C(c2ccc(Cl)c(Cl)c2)CC(=O)N1 (stereo not shown) [GSK299115A] as the entry.
Data returned: 100

Data request: Specify measured Percent Control for COc1cc(C)c(N(C)C(=O)CN(C)C)cc1Nc1nc(Nc2cccc(F)c2C(N)=O)c2cc[nH]c2n1 [GSK2219385] .
Data returned: 10

Data request: Name the recorded Percent Control of the compound listed here: COc1cc(C=NNc2ncnc3c2cnn3-c2ccccc2)ccc1O [GW513184X]
Data returned: 100

Data request: Answer with the recorded Percent Control of Cl.O=C(O[C@H]1CN[C@H](C#Cc2cc3ncnc(Nc4ccc5c(cnn5Cc5ccccc5)c4)c3s2)C1)N1CCOCC1 [GSK200398A] only.
Data returned: 100

Data request: Identify measured Percent Control associated with COc1ccc2[nH]c3c4[nH]c5ccc(OC)cc5c4c4c(c3c2c1)C(=O)NC4=O [GW296115X]
Data returned: 6.9

Data request: State, in one line, measured Percent Control of CN1CCN(C(=O)c2ccc(NC(=O)Nc3ccc(N(C)c4ccnc(Nc5ccc(CS(C)(=O)=O)cc5)n4)cc3)cc2)CC1.Cl [GW830263A]
Data returned: 100

###

Give measured Percent Control for each item. Keep answers brief.
test system: IRAK3; conditions: Compound Concentration (nM):1000
Use % as the unit, but write only the number.

Data request: # return recorded Percent Control for entry C/C(Nc1ccc(S(N)(=O)=O)cc1)=C1/C(=O)Nc2ccccc21 [GW335962X]
Data returned: 88

Data request: Kindly indicate its recorded Percent Control. Item: Cc1cc(O)cc(C)c1/C=C/c1cncc(C(N)=O)c1 [GW435821X]
Data returned: 100

Data request: Answer with the recorded Percent Control for the compound listed here: CC(C)COC(=O)c1ccc2c(c1)/C(=C/Nc1ccc(S(N)(=O)=O)cc1)C(=O)N2 [GW416981X]
Data returned: 100

Data request: Answer with the recorded Percent Control of CN1CCN(C(=O)c2ccc(NC(=O)Nc3ccc(N(C)c4ccnc(Nc5ccc(CS(C)(=O)=O)cc5)n4)cc3)cc2)CC1.Cl [GW830263A] only.
Data returned: 0.1

Data request: Give the reported value of Percent Control for this record: COc1cc(N2CCN(C(C)C)CC2)ccc1Nc1nc(Nc2ccc(F)cc2C(=O)NC[C@@H](O)CO)c2cc[nH]c2n1 [GSK1392956A]
Data returned: 86

Data request: Read the entry COc1cc(C=NNc2ncnc3c2cnn3-c2ccccc2)ccc1O [GW513184X] and write its reported Percent Control.
Data returned: 28

Data request: Fill in Percent Control for record CCS(=O)(=O)c1ccc(OC)c(Nc2ncc(-c3cccc(F)c3)o2)c1 [GW621970X]
Data returned: 100

Data request: Report Percent Control, nothing else, for this compound: COC(=O)Nc1nc2ccc(Oc3ccc(NC(=O)Nc4cc(C(F)(F)F)ccc4F)cc3)cc2s1.Cl [GW693917A]
Data returned: 100

Data request: Give the reported Percent Control for this compound. COc1cccc(-n2ncc3c(N/N=C/c4ccncc4)ncnc32)c1 [GW784752X]
Data returned: 0

Data request: Give reported Percent Control value for COc1cccc(-c2c[nH]c3c(N/N=C/c4ccncc4)ncnc23)c1 [GW814408X]
Data returned: 76

Data request: Read off the recorded Percent Control for COc1cc(C)c(N(C)C(=O)CN(C)C)cc1Nc1nc(Nc2cccc(F)c2C(N)=O)c2cc[nH]c2n1 [GSK2219385]
Data returned: 97

Data request: Supply measured Percent Control of O=C(Nc1n[nH]c2nc(-c3ccc(O)cc3)c(Br)cc12)C1CC1 [SB-725317] in your reply.
Data returned: 100

Data request: Answer with reported Percent Control of CCc1ccc(Oc2nccc(-c3c(-c4ccc(F)cc4)ncn3C3CCNCC3)n2)cc1 [SB-242719]
Data returned: 95

Data request: Identify the reported Percent Control for the following entry. Cl.O=C(Nc1ccc(Oc2ccc3[nH]c(NC(=O)c4ccccc4)nc3c2)cc1)Nc1cc(C(F)(F)F)ccc1F [GW709042A]
Data returned: 100

Data request: Answer with the recorded Percent Control for the compound listed here: Cl.O=C(O[C@H]1CN[C@H](C#Cc2cc3ncnc(Nc4ccc5c(cnn5Cc5ccccc5)c4)c3s2)C1)N1CCOCC1 [GSK200398A]
Data returned: 77

Data request: Item NS(=O)(=O)c1ccc(N/N=C2\C(=O)Nc3ccc(Cl)cc32)cc1 [GW280670X] : provide Percent Control
Data returned: 100

Data request: Name the recorded Percent Control of the item COc1ccc2[nH]c3c4[nH]c5ccc(OC)cc5c4c4c(c3c2c1)C(=O)NC4=O [GW296115X] in your answer.
Data returned: 66

Data request: Provide Percent Control value for the following compound: COc1ccc2c(-c3ccnc(Nc4cccc(OC(F)(F)F)c4)n3)cnn2n1 [GW810372X]
Data returned: 80

Data request: Dear colleague, please send me the reported Percent Control for Nc1ncnc2occ(-c3ccc(NC(=O)Nc4cc(C(F)(F)F)ccc4F)cc3)c12 [GW770249X] when you can.
Data returned: 100
